# experimental_system: DLG2_2, Q15700
# Sequence (Q15700 189-283): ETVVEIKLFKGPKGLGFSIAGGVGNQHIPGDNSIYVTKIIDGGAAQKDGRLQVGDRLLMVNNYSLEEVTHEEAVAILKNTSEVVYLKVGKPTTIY
# experimental_protocol: holdup assay
# Parameters: key: below the threshold = too weak to quantify, mostly under pKd 3.1 to 4
# assay_setup: plain residues with an end cap or a label only (N-terminal biotin on a linker: ado-ado)
readout_kind: pKd

Worked examples, 6 binders total:
>>> result_value("NISARRFTLC [FAM167B, Q9BTA0]")
3.79
>>> result_value("VISSDDLTEL [CAPN6, Q9Y6Q1]")
"below the threshold"
>>> result_value("PSVYSRSQYV [CLDN8, P56748]")
"below the threshold"
>>> result_value("QLGSPTADLA [SIPA1, Q96FS4]")
"below the threshold"
>>> result_value("QQGLLPHSSC [TYRO3, Q06418]")
"below the threshold"
>>> result_value("QKNKDREYYV [NRXN3, Q9HDB5]")
"below the threshold"

Q) Field request: pKd | item: IGHEDLETAV [DGKI, O75912]
A) 4.71

Q) Same question for NTALVESEDL [PALLS, Q8WX93;Q8WX93-1] please.
A) below the threshold

Q) Same question for VYEVPVETKF [SLC26A3, P40879] please.
A) below the threshold
